Cited source for all entries: patent US9187429B2

Target: human CYP11B1 (Homo sapiens (Human))
Experiment: G-402 cellular enzyme assay, human CYP11B1 (cortisol release)
Settings: G-402 cells expressing human CYP11B1, 1 μM Deoxycortisol
pEC50: −log10 of the molar value.
observable: pEC50

[I] CCC(=O)NC1CCCc2c(-c3ccc(Cl)cc3F)cncc21 (racemic) [Example 30]
[II] OC1CCCc2c(-c3ccc(C(F)(F)F)cc3)cncc21 (racemic) [Example 104]
[ask] Given the listed records, identify the one among I and II with higher pEC50. Reply briefly: the label of your chosen item.
[reply] II
(II: 6.15, I: 5.82)

----------
Target: human CYP11B1 (Homo sapiens (Human), UniProt P15538)
Sequence (P15538 25-503): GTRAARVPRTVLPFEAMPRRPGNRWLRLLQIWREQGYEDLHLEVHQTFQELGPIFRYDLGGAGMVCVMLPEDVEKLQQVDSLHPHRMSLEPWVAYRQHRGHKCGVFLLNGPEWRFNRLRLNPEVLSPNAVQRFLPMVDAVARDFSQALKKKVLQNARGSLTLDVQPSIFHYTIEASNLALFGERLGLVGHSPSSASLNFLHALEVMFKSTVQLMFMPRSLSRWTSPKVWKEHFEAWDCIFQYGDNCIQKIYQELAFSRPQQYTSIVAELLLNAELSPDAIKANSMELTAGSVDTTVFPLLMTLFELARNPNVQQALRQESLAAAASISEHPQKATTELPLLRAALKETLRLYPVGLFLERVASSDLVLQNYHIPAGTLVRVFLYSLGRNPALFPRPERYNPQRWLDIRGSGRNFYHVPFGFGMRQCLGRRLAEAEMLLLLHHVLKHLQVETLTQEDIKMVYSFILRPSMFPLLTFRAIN
Assay: G-402 cellular enzyme assay, human CYP11B1 (cortisol release)
Conditions: G-402 cells expressing human CYP11B1, 1 μM Deoxycortisol
pEC50: −log10 of the molar value.
observable: pEC50

{"compound": "CCS(=O)(=O)NC1CCc2c(-c3ccc(C(F)(F)F)cc3)cncc21 (single isomer, unassigned; (-)) [Example 65]", "pEC50": 5.97}
{"compound": "CCC(=O)NC1CCCc2c(-c3ccc(F)c(F)c3)cncc21 (racemic)", "pEC50": 6.08}
{"compound": "CCC(=O)NC1CCCc2c(-c3ccc(Cl)c(F)c3)cncc21 (racemic) [Example 36]", "pEC50": 5.99}
{"compound": "CCS(=O)(=O)NC1CCCc2c(-c3ccc(C#N)cc3)cncc21 (racemic)", "pEC50": 5.96}
{"compound": "CCC(=O)N[C@H]1c2cncc(-c3ccc(C(F)(F)F)cc3)c2CC[C@@H]1C (single isomer, unassigned)", "pEC50": 6.13}
{"compound": "CCOC(=O)NC1CCCc2c(-c3ccc(C#N)cc3)cncc21 (racemic)", "pEC50": 6.18}
{"compound": "CCC(=O)NC1CCCc2c(-c3ccc(C#N)cc3)cncc21 (racemic) [Example 5]", "pEC50": 6.12}
